Hey, just so you know, these numbers are from patent US20140341917A1.

Recorded Kd values for a group of binders are listed next.
target: T1, human PD-L1 (human, UniProt Q9NZQ7 19-238, limits assumed); experiment: Biacore kinetic profile
T1 construct: Protein used in the Biacore assays of 3.1
T1 sequence (Q9NZQ7 19-238 limits assumed): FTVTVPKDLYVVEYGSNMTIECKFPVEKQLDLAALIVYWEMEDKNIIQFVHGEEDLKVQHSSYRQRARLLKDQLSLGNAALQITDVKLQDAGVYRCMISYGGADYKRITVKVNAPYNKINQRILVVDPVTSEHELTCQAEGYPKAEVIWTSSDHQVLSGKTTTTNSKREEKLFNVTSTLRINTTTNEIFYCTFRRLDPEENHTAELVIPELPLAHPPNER
ENDPOINT: Kd (nM)

{"columns": ["BINDER", "UNIT DESCRIPTOR", "DATA VALUE"],
 "data": [
  ["A09-219-1 (antibody, human IgG1, lambda, V domains shown, also called VH-M31S, M33I, M35F, S63T, I93V) VH: EVQLLESGGGLVQPGGSLRLSCAASGFTFSSYIMFWVRQAPGKGLEWVSSIYPSGGITFYADTVKGRFTISRDNSKNTLYLQMNSLRAEDTAVYYCARIKLGTVTTVDYWGQGTLVTVSS VL: QSALTQPASVSGSPGQSITISCTGTSSDVGAYNYVSWYQQHPGKAPKLMIYDVSNRPSGVSNRFSGSKSGNTASLTISGLQAEDEADYYCSSYTSSSTRVFGTGTKVTVLG", "nM", 0.18],
  ["A09-223-1 (antibody, human IgG1, lambda, V domains shown, also called VH-M31S, M35F, S63T, I93V) VH: EVQLLESGGGLVQPGGSLRLSCAASGFTFSSYMMFWVRQAPGKGLEWVSSIYPSGGITFYADTVKGRFTISRDNSKNTLYLQMNSLRAEDTAVYYCARIKLGTVTTVDYWGQGTLVTVSS VL: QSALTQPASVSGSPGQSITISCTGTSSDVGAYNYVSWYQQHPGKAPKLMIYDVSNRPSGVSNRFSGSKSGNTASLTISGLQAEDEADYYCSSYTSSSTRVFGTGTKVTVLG", "nM", 3.62],
  ["A09-244-2 (antibody, human IgG1, lambda, V domains shown, also called VL-A31G; VH-M31S, M33I, M35F, S63T, I93V) VH: EVQLLESGGGLVQPGGSLRLSCAASGFTFSSYIMFWVRQAPGKGLEWVSSIYPSGGITFYADTVKGRFTISRDNSKNTLYLQMNSLRAEDTAVYYCARIKLGTVTTVDYWGQGTLVTVSS VL: QSALTQPASVSGSPGQSITISCTGTSSDVGGYNYVSWYQQHPGKAPKLMIYDVSNRPSGVSNRFSGSKSGNTASLTISGLQAEDEADYYCSSYTSSSTRVFGTGTKVTVLG", "nM", 0.12],
  ["A09-188-1 (antibody, human IgG1, lambda, V domains shown, Parent antibody, lambda light chain, expressed as IgG) VH: EVQLLESGGGLVQPGGSLRLSCAASGFTFSMYMMMWVRQAPGKGLEWVSSIYPSGGITFYADSVKGRFTISRDNSKNTLYLQMNSLRAEDTAIYYCARIKLGTVTTVDYWGQGTLVTVSS VL: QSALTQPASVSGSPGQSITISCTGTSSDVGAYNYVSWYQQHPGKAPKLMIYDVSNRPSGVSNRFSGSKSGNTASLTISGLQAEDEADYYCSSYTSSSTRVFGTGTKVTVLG", "nM", 5.29]
]}
